Angle listing for selected substances.
Test system: clot formation in whole blood
experiment notes: Thromboelastography (TEG), whole blood stimulated with kaolin
Type: cell-based, human
study conditions: RNA 2.0 μM
Strand notation (5' to 3'): a small letter for the sugar, then the base; units joined by * are phosphorothioate-linked, units joined directly phosphodiester-linked; [ ] holds rarer units or linkages, { } end groups; capitals alone tell only the bases. r = 2'-OH (RNA); f = 2'-fluoro
Field: numeric (deg). Do not append units.

Recorded results for 3 substances are shown here.
>  <substance>
11F7Tmut: 11F7T mutant control, SEQ ID NO: 6 (rGrArGrArGfCfCfCfCrArGfCrGrArGrAfUrArAfUrAfCfUfUrGfUrAfCfCfCrGfCfUfCfUfU) [Aptamer 11F7Tmut, reference compound]

>  <readout units>
deg

>  <Angle>
69.7

$$$$
>  <substance>
9.3Tmut: 9.3T mutant control, SEQ ID NO: 4 (AUGGGGACUGUGCCGCGUAAUGCUGCCUCCCCAU; 2'-fluoro at CU, RNA at AG, backbone not given here) [Aptamer 9.3Tmut, reference compound]

>  <readout units>
deg

>  <Angle>
58.6

$$$$
>  <substance>
9.3T: FIXa aptamer, 2'-fluoropyrimidine modified RNA, SEQ ID NO: 1 (AUGGGGACUAUACCGCGUAAUGCUGCCUCCCCAU; 2'-fluoro at CU, RNA at AG, backbone not given here) [Aptamer 9.3T]

>  <readout units>
deg

>  <Angle>
36.9

$$$$

Supply recorded Angle for R9D-14T: prothrombin/thrombin aptamer, 58-base truncation of RNA9D-14, SEQ ID NO: 3 (GGCGGTCGATCACACAGTTCAAACGTAATAAGCCAATGTACGAGGCAGACGACTCGCC; 2'-fluoro at CT, RNA at AG, backbone and T or U not given here) [Aptamer R9D-14T] here.
48.1
